System: PC-3
assay: NCI tumour cell line growth inhibition, 48 h
The source made the active and inactive calls. Rule as the data show it: active = GI50 up to about 1.1 µM and inactive = higher.
Would you mind answering with one of these outcomes? True for active, False for inactive

Sample answers from the record:
compound=Cc1cc(O)c(O)c(Oc2cc(C)cc(O)c2O)c1 class=False
compound=CC(=O)O[C@H]1C[C@]2(O)[C@@H]3CC[C@@H]4C[C@@H](O)CC[C@]4(C)[C@H]3CC[C@]2(C)[C@H]1C1=CC(=O)OC1 class=True
compound="O=C(O)C1=C(C(=O)O)N(c2ccncc2)C(c2ccco2)=CC1c1ccccc1[N+](=O)[O-] (stereo unspecified)" class=False
compound="COc1ccc(C(c2ccc3c(c2)OCO3)N2C(=O)CCC2C(=O)O)cc1 (stereo unspecified)" class=False
compound=O=C(O)c1cc2ccccc2c(/N=N/c2ccc(S(=O)(=O)Nc3nccs3)cc2)c1O class=False

Write down the call the test reported for this compound. Item: CC1=NN(C(=O)c2ccncc2)C(=O)C1/N=N/c1ccc2ccccc2c1 (stereo unspecified)
False

Same thing, different compound: CC(=O)NC(Cc1c[nH]c2ccccc12)C(=O)O (stereo unspecified)
False

Same thing, different compound: CSc1nc2ccccc2c(=O)n1/N=C1\C(=O)N(CN2CCOCC2)c2ccc(Cl)cc21
False

Same thing, different compound: Cc1ccc(O)c(C2=CC(c3cccc(Br)c3)SC(=N)N2)c1 (stereo unspecified)
False

Same thing, different compound: CC(=O)OC1(C)N=NC2(CCCCC2)O1 (stereo unspecified)
False

Same thing, different compound: c1ccc2c(c1)c1c(n2CCOCCN2CCCC2)CCCC1
False

* * *

System: HOP-92
assay: NCI tumour cell line growth inhibition, 48 h
Activity calls are given as the source filed them. No stated cut-off is given here; in the data, active = GI50 up to about 1.1 µM and inactive = higher.
Please go through the items and note down their GI50.

Use these answered entries as a reference point.
molecule=N#Cc1cn(-c2c3ccccc3nc3ccccc23)c(=O)[nH]c1=O result="7.73 µM (inactive)"
molecule=O=S(=O)(O)c1ccc(-c2nnc(-c3ccccn3)nc2-c2ccc(S(=O)(=O)O)o2)o1 result="> 100 µM (inactive)"
molecule="CC(C#N)Nc1ccc(Oc2ccc(C(C)(C)c3ccc(Oc4ccc(NC(C)C#N)cc4)cc3)cc2)cc1 (stereo not drawn)" result="31.4 µM (inactive)"
molecule=CC(=O)Nc1ccc(-c2nc3ccccc3s2)cc1 result="55.5 µM (inactive)"
molecule="Cc1cn(C2CC(n3cncn3)C(C(C)O)O2)c(=O)[nH]c1=O (stereo not drawn)" result="> 100 µM (inactive)"
molecule=COc1ccc(CNC(=O)[C@H](Cc2ccc(O)cn2)NC(C)=O)cc1OC result="> 100 µM (inactive)"
molecule=COc1ccc2c(ccc3c(COC(=O)NC(C)C)c(COC(=O)NC(C)C)n(C)c32)c1 result="11.2 µM (inactive)"

Let's switch to this molecule now.
Please look up its GI50: CC(=O)OC(C(=O)O)C(OC(C)=O)C(OC(C)=O)C(OC(C)=O)C(=O)O (stereo not drawn)
> 100 µM (inactive)

* * *

Please go through the items and note down their GI50.
System: SF-295
assay: NCI tumour cell line growth inhibition, 48 h
Activity calls are given as the source filed them. Cut-off read from the data, not from the text of the source: active = GI50 up to about 1.1 µM and inactive = higher.

Use these answered entries as a reference point.
compound=CC1=NC(=Cc2cc(Br)cc(Br)c2)C(=O)N1n1c(-c2ccccc2)nc2ccccc2c1=O target_desc=SF-295 result="> 100 µM (inactive)"
compound=Cc1cccc(Nc2nc3ccccc3nc2NS(=O)(=O)c2ccccc2)c1 target_desc=SF-295 result="14.5 µM (inactive)"
compound="CC12CC3c4ccccc4CN1C3(c1ccccc1)OC2=O (stereo not drawn)" target_desc=SF-295 result="> 100 µM (inactive)"
compound="COc1ccc(C(=O)C2CCC(C(=O)O)C2)cc1 (stereo not drawn)" target_desc=SF-295 result="> 100 µM (inactive)"
compound=O=C(NO)c1ccc(OCc2ccccc2)cc1 target_desc=SF-295 result="26.2 µM (inactive)"
compound="COc1ccc(C2SCC(=O)N2c2ccc(-n3c(-c4ccccc4)nc4ccccc4c3=O)cc2)cc1 (stereo not drawn)" target_desc=SF-295 result="> 100 µM (inactive)"

Please report GI50 for every entry that follows.
1. COc1ccc([C@H]2CC(=O)N3CCCC3N2)cc1 (stereo partly drawn)
2. CCCCCCCCCCCCCCC(O)C[N+](C)(CCO)CCO (stereo not drawn)

> 100 µM (inactive)
2.25 µM (inactive)

* * *

Test system: HL-60
assay: NCI tumour cell line growth inhibition, 48 h
Activity calls are given as the source filed them. Rule as the data show it: active = GI50 up to about 1.1 µM and inactive = higher.
Would you mind answering with one of these outcomes? 1 (yes) for active, 0 (no) for inactive

molecule="COc1ccc([C@H]2CC(=O)N3CCCC3N2)cc1 (stereo partly drawn)" class="0 (no)"

Write down the call the test reported for this molecule. Item: CCCCCN1C(=O)C(Cc2ccccc2)N=C(c2ccc(O)cc2)c2cc(Cl)ccc21 (stereo not drawn)
0 (no)

Same thing, different molecule: CCN(CC)Cc1nc(C2CCC([N+](=O)[O-])O2)no1 (stereo not drawn)
0 (no)

Same thing, different molecule: [N-]=[N+]=Nc1c(C=O)c(=O)n2c3c(cccc13)CCC2
1 (yes)

Same thing, different molecule: C=C1CC(Cn2ccc(=O)[nH]c2=O)(c2ccc(Cl)cc2)OC1=O (stereo not drawn)
0 (no)

* * *

Please go through the items and note down their GI50.
Test system: UACC-62
assay: NCI tumour cell line growth inhibition, 48 h
Calls of active or inactive are those of the source. No stated cut-off is given here; in the data, active = GI50 up to about 1.1 µM and inactive = higher.

compound="Nc1ncc(N)c(NCC2(CO)CC(CCc3ccccc3)C2)n1 (stereo not given)" target_desc=UACC-62 result="5.81 µM (inactive)"
compound="CC12CCCC(O)C1CCC1=CC3(CCC12)SCCS3 (stereo not given)" target_desc=UACC-62 result="> 10 µM (inactive)"
compound=COc1ccccc1C1=C2C(=O)N(C)C(c3ccccc3OC)=C2C(=O)N1C target_desc=UACC-62 result="> 100 µM (inactive)"
compound=O=C(NCc1ccc(Cl)cc1)c1cc2sccc2nc1C(F)(F)F target_desc=UACC-62 result="35.2 µM (inactive)"

Please report GI50 for every entry that follows.
1. C=C1c2[nH]c3c([N+](=O)[O-])c(OC)ccc3c2CCN1C(C)=O
2. Oc1c2cc(Br)cc1CCc1cc(Br)cc(c1O)CC2
3. CC1=C(C(=O)OC(C)C)C(c2ccccc2C(F)(F)F)C(C(=O)OC(CO[N+](=O)[O-])CO[N+](=O)[O-])=C(C)N1 (stereo not given)
4. c1ccc(-c2cc(-c3cc(-c4ccccc4)[nH]n3)[nH]n2)cc1

1. 61.9 µM (inactive)
2. 18.6 µM (inactive)
3. 3.99 µM (inactive)
4. > 100 µM (inactive)

Please report GI50 for every entry that follows.
1. O=c1[nH]c(-c2ccc(-c3nc4cc([N+](=O)[O-])ccc4c(=O)[nH]3)cc2)nc2cc([N+](=O)[O-])ccc12
2. O=C1N(c2ccccc2)C(=O)C2(SC=NN2Cc2ccccc2)N1c1ccccc1 (stereo not given)

1: > 100 µM (inactive); 2: > 100 µM (inactive)

* * *

Please go through the items and note down their GI50.
System: HT-29
assay: NCI tumour cell line growth inhibition, 48 h
Calls of active or inactive are those of the source. Rule as the data show it: active = GI50 up to about 1.1 µM and inactive = higher.

Use these answered entries as a reference point.
compound=CC(=O)Oc1cc2c(=O)oc3c(OC(C)=O)c(OC(C)=O)c(OC(C)=O)c4c(=O)oc(c1OC(C)=O)c2c34 target_desc=HT-29 result="37.9 µM (inactive)"
compound=Cc1cccc(C)c1NC(=O)C(=O)Nn1c(NN)nc2ccccc2c1=O target_desc=HT-29 result="> 100 µM (inactive)"
compound="COc1cc(NC(C)c2ccc3c(c2)OCCO3)cc(OC)c1OC (stereo not drawn)" target_desc=HT-29 result="33.7 µM (inactive)"

Please report GI50 for every entry that follows.
1. COc1cc2c(cc1OC)OC(c1c(OC)ccc(OC)c1O)CC2 (stereo not drawn)
2. Sc1nnc(/C=C/c2ccc(Cl)c(Cl)c2)[nH]1

> 100 µM (inactive)
> 100 µM (inactive)

Please report GI50 for every entry that follows.
1. CSc1nc(-c2cc3c(c(SC)n2)CCC3)cc2c1CCC2
2. CN(Cc1cnc2nc(N)nc(N)c2n1)c1ccc(C(=O)NCCCC(=O)O)cc1

1: > 100 µM (inactive); 2: > 100 µM (inactive)

Please report GI50 for every entry that follows.
1. Nc1nc(N)c2ncn(-c3ccc(Cl)c(Cl)c3)c2n1
2. CCCCOC(=O)C(NC(C(=O)OCCCC)c1cc(C(C)(C)C)c(O)c(C(C)(C)C)c1)c1cc(C(C)(C)C)c(O)c(C(C)(C)C)c1 (stereo not drawn)
3. COC(=O)c1ccccc1/C=C1\Cc2cc(C)c(C)cc2C1=O
4. CN(C)CC1CN(C(=O)Nc2ccccc2)C(=N)O1 (stereo not drawn)
5. CC1=NN=C(C)C1/N=N/c1ccc2[nH]c(C)nc2c1

1: 22.2 µM (inactive); 2: 76 µM (inactive); 3: > 100 µM (inactive); 4: > 100 µM (inactive); 5: 16 µM (inactive)
